Hey, just so you know, these numbers are from ChEMBL document CHEMBL5058577.

# System: Fibroblast
# measurement_notes: Multiplex assay against human fibroblast
# Assay type: toxicity, cell-based
# condition_description: 12 h, 10 µM, compound concentration 10 uM, replicate 2
Each entry below lists one item and its recorded Population Tubulin-Different-Phenotype (%) value.
# include the unit after the value

Study these solved cases before continuing.
Give its Population Tubulin-Different-Phenotype (%) value. Item: CCc1cc2cc(NS(=O)(=O)c3ccc(C#N)cc3)ccc2n(CC)c1=O 74%

Would you mind doing CC(C)c1noc(N2CCC(COc3ccc(-c4ccc(S(C)(=O)=O)cc4)nc3)CC2)n1 [GSK-1292263] as well? 61%

Would you mind doing CN[C@@H](C)C(=O)N[C@H](C(=O)N1CCC[C@H]1C(=O)Nc1snnc1-c1ccccc1)C1CCCCC1 [GDC-0152] as well? 65%

As a next step, examine the compound that follows.
Give its Population Tubulin-Different-Phenotype (%) value. Item: O=C(NCCN1CCC(n2c(=O)[nH]c3cc(Cl)ccc32)CC1)c1ccc(F)cc1 [HALOPEMIDE] 87%
